Entries annotated with measured CC50 at 72 h
# experiment.description: Cytotoxicity against mouse NIH 3T3 cells after 72 hrs
# Format: cell-based, NIH3T3
# condition.summary: read-out: TCS50

Examples with their reported CC50 at 72 h follow.
{"molecule": "COc1ccc(C(=O)O[C@H]2[C@H](O[C@@H]3[C@@H](OC(C)=O)[C@H](O[C@H]4C[C@H]5[C@@H]6CC=C7C[C@@H](O)CC[C@]7(C)[C@H]6CC[C@]5(C)[C@@]4(O)[C@H](C)C(=O)CCC(C)C)OC[C@@H]3O)OC[C@@H](O)[C@@H]2O)cc1", "CC50 at 72 h": "> 50 µM"}
{"molecule": "CC(=O)O[C@H]1[C@H](O[C@H]2C[C@H]3[C@@H]4CC=C5C[C@@H](O)CC[C@]5(C)[C@H]4CC[C@]3(C)[C@@]2(O)[C@H](C)C(=O)CCC(C)C)OC[C@H](O)[C@@H]1O", "CC50 at 72 h": "> 50 µM"}

Ask: Item COc1ccc(C(=O)O[C@H]2[C@H](O[C@@H]3[C@@H](OC(C)=O)[C@H](O[C@@H](CCC(C)C)[C@@H](C)[C@@]4(O)C(=O)C[C@H]5[C@@H]6CC=C7C[C@@H](O)CC[C@]7(C)[C@H]6CC[C@@]54C)OC[C@@H]3O)OC[C@@H](O)[C@@H]2O)cc1 has what recorded CC50 at 72 h?
Reply: > 50 µM
